Taken from paper PMC4402028.

Format: in vivo, human
Settings: both, human, plasma, oral, Vz/F, eluxadoline 100 mg plus cyclosporine 600 mg; arithmetic mean (CV); n = 19
Value kind: Vd/F (L)
Express it in L; write the number only.

Need Vd/F, item COc1ccc(CN(C(=O)[C@@H](N)Cc2c(C)cc(C(N)=O)cc2C)[C@@H](C)c2ncc(-c3ccccc3)[nH]2)cc1C(=O)O [eluxadoline] 20700

###

Test: Semiphysiological integrated PK/ADME model
Design: species or system human
Conditions: human, plasma, oral, 200 mg, biliary clearance (CLbil); without inhibitor; estimated
Value kind: clearance (mL/min)
Report the figure in mL/min without appending any unit label.

Tell me the measured clearance of COc1ccc(CN(C(=O)[C@@H](N)Cc2c(C)cc(C(N)=O)cc2C)[C@@H](C)c2ncc(-c3ccccc3)[nH]2)cc1C(=O)O , please. 832
